target: siderocalin (Scn) (Homo sapiens)
Construct: gene LCN2
experiment notes: tryptophan fluorescence quenching titration of metal-free ligand, pH […]
Assay type: binding
recorded endpoint: pKd
Please express pKd as -log10 of the molar concentration.

Query: Fill blank: measured pKd of the compound O=C(NCCCN(CCCCN(CCCNC(=O)c1cccc(=O)n1O)C(=O)c1cccc(=O)n1O)C(=O)c1cccc(=O)n1O)c1cccc(=O)n1O [HOPO, 3,4,3-LI(1,2-HOPO)] is ____.
Result: 7.37

---

target: siderocalin (Scn) (Homo sapiens, UniProt P80188)
Construct: gene LCN2
Sequence (P80188 21-198): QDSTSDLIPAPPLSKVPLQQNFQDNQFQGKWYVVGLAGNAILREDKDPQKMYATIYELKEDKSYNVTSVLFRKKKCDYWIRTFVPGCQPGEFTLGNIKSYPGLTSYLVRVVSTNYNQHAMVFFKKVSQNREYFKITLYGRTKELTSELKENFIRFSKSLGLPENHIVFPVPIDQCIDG
experiment notes: tryptophan fluorescence quenching titration, pH […]; crystal structure at […] Å
Format: binding
recorded endpoint: Kd (nM)
Write the answer as a number in nM, unit excluded.

Query: Item O=C(NCCCN(CCCCN(CCCNC(=O)c1cccc(=O)n1O)C(=O)c1cccc(=O)n1[O-])C(=O)c1cccc(=O)n1[O-])c1cccc(=O)n1[O-].[Ac+3] [[Ac^III(HOPO)]^1–] with siderocalin (Scn) (Homo sapiens, UniProt P80188) - Kd?
Result: 6

Data provenance is paper PMC11251196.
